# experimental-details: Cytotoxicity against mouse BV2 cells assessed as cell viability at 40 uM relative to control
# Assay type: cell-based, BV-2
# condition-context: read-out: Activity
Each entry below carries its reported viability at 40 µM.
Give your result in % as a bare value.

Would you please look over these solved cases?
> print(dat)
                                   compound   reported.endpoint  scale.unit  readout.value
1  C=C1CCC[C@H]2[C@](C)(Cc3cc(C(=O)OC)cc(OC)c3O)[C@@H](C)CC[C@]12C [POLYFIBROSPONGOL A]  viability at 40 µM           %            125
2  C=C1CCC[C@H]2[C@](C)(C[C@@H]3C(=O)C=C(OC)[C@@H]3O)[C@@H](C)CC[C@]12C  viability at 40 µM           %            174
3  C=C1CCC[C@H]2[C@](C=O)(Cc3cc(C(=O)OC)c(O)c(OC)c3O)[C@@H](C)CC[C@]12C  viability at 40 µM           %            106

We next turn to a different compound, shown below.
## Input Which measured viability at 40 µM value corresponds to CNC(=N)NCCC[C@H](N)C(=O)O [TILARGININE] ?
## Output 95.5
